Tested on: Fibroblast
Assay: Multiplex assay against human fibroblast
Type: toxicity, cell-based
Settings: 12 h, 1 µM, compound concentration 1 uM, replicate 1
Recorded Population Normal (%) for the following compounds
readout_kind: Population Normal (%)

1) CN1CCC(C(=O)c2cccc(NC(=O)c3c(F)cc(F)cc3F)n2)CC1    96
2) O=C(Nc1cc(-c2ccccc2)nn1-c1ccccc1F)c1ccc([N+](=O)[O-])cc1    97
3) O=C(O)CCC/C=C\CC1C(O)CC(O)C1/C=C/C(O)COc1cccc(Cl)c1 (stereo not drawn)    100
4) Cc1cc(O)c(-c2ccc([C@@H](C)CN(C)C)cc2)c2c1[nH]c(=O)c1sccc12    92
5) CN1CCN2c3ccccc3Cc3ccccc3C2C1.Cl (stereo not drawn) [MIANSERIN HYDROCHLORIDE]    97
6) CCCCC[C@H](O)/C=C/[C@H]1[C@H](O)CC(=O)[C@@H]1CCCCCCC(=O)O    99
7) C[C@H](NC(=O)CNC(=O)c1cccc(Cl)c1)c1ccccc1    100
8) COc1cc(C(=O)N2CC[C@@H](O)[C@@H](N)C2)cc2nc(-c3cc4ccccc4n3CC3CC3)n(C)c12.Cl    97

Cited source: ChEMBL document CHEMBL5058577
